Every entry's value here was drawn from patent US6605742B2.

Assay system MMP-1 (Homo sapiens, UniProt P03956); read-out recorded as pIC50.
Keep it numeric: pIC50 is minus log10 of the concentration in mol/L.

Recorded pIC50 of O=C(CN1CC=CCP1(=O)c1ccc(Oc2ccc(Cl)cc2)cc1)NO (racemic) , please. 5.30

Which pIC50 is reported for this compound? O=C(CN1CC=CCCP1(=O)c1ccc(Oc2ccccc2)cc1)NO (racemic) 5.10

Quick check: pIC50 of O=C(CN1CC=CCP1(=O)c1ccc(Oc2ccccc2)cc1)NO (racemic) ? 5.60

---

Biological target: MMP-2 (Homo sapiens)
Sequence (P08253 110-660): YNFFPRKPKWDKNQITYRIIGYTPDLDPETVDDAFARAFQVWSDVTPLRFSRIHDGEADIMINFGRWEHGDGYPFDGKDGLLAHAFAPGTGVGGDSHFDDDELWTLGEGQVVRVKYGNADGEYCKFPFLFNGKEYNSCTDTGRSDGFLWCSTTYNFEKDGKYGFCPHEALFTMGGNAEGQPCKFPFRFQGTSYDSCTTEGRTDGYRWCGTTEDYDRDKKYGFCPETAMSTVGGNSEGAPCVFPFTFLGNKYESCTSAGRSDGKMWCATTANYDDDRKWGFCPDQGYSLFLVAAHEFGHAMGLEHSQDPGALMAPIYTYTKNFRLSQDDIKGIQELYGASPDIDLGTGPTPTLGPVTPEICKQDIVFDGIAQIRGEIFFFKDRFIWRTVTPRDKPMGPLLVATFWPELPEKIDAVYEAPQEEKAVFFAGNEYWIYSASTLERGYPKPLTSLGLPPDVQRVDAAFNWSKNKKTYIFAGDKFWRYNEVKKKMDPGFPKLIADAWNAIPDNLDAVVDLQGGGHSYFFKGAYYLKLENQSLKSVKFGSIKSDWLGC
Exercise: state measured IC50 for each of the compounds provided.
API: value field is a number in nM; no unit string.

Fill in: IC50 of O=C(CN1CC=CCCP1(=O)c1ccc(Oc2ccccc2)cc1)NO (racemic) [Example 4] is ___ 7.94

Consider the compound shown here: O=C(CN1CC=CCP1(=O)c1ccc(Oc2ccccc2)cc1)NO (racemic) [Example 1] What is its recorded IC50? 5.01

Quick one: IC50 for O=C(CN1CC=CCP1(=O)c1ccc(Oc2ccc(Cl)cc2)cc1)NO (racemic) [Example 6] ? 3.98
